Assay text: Half life in rat liver microsome
Type: ADME
Study conditions: liver microsomes
In this section we review reported half-life values for a set of molecules.
Answer in min, number only, no unit symbol.

Below, 2 molecules whose answers are already recorded.
Molecule	Result
CC(CNC(=O)c1ccc(F)cc1)CN(C1=NS(=O)(=O)c2ccccc21)c1ccccc1 (centres undefined)	22
CC(C)(CNC(=O)N1CCOCC1)CN(C1=NS(=O)(=O)c2ccccc21)c1ccccc1	30

--- query ---
Would you mind telling me what half-life value was observed for `CC(C)(CNC(=O)N1CCOCC1)CN(C1=NS(=O)(=O)c2cc(F)ccc21)c1ccccc1` ?
60

---

Target: Potassium voltage-gated channel subfamily A member 3 (Homo sapiens)
Assay text: Inhibition of human Kv1.3 ion channel expressed in CGE22 cells
Assay metric: IC50 (nM)
Number in nM, nothing else.

Record request: IC50 value, item `CC(C)(CNC(=O)N1CCOCC1)CN(C1=NS(=O)(=O)c2cc(F)ccc21)c1ccccc1`
340

Try `CC(C)(CNC(=O)CC(F)(F)F)CN(C1=NS(=O)(=O)c2cc(F)ccc21)c1ccccc1` next.
150

// query: CC(C)(CNC(=O)C(C)(O)C(F)(F)F)CN(C1=NS(=O)(=O)c2cc(F)ccc21)c1ccccc1 (centres undefined)
250

Would you kindly repeat that for CN1CCCC1C(=O)NCC(C)(C)CN(C1=NS(=O)(=O)c2cc(F)ccc21)c1ccccc1 (centres undefined) ?
2560

For `Cn1cnc(C(=O)NCC(C)(C)CN(C2=NS(=O)(=O)c3cc(F)ccc32)c2ccccc2)c1` then?
13100

Subsequent entry: `CC(C)(CNC(=O)c1cnccn1)CN(C1=NS(=O)(=O)c2cc(F)ccc21)c1ccccc1`
230

Do the same for `CC(C)(CNC(=O)C1(O)CC1)CN(C1=NS(=O)(=O)c2cc(F)ccc21)c1ccccc1` please
820

Would you mind doing `CC(C)(CNC(=O)C1(C(F)(F)F)CC1)CN(C1=NS(=O)(=O)c2cc(F)ccc21)c1ccccc1` as well?
80

Same lookup for `COc1cnccc1C(=O)NCC(C)(C)CN(C1=NS(=O)(=O)c2cc(F)ccc21)c1ccccc1` , please.
200

---

Parameter: solubility. Scope: all listed entries.
Assay text: Aqueous solubility of compound by chemiluminescent nitrogen detection analysis
Format: physicochemical
Please state the figure in µM; there is no need to write the unit.

Molecule	solubility [µM]
CC(C)(CNC(=O)C1(C#N)CC1)CN(C1=NS(=O)(=O)c2cc(F)ccc21)c1ccccc1	304

Shift focus to the following entry.
Consider the molecule shown here: CC(C)(CNC(=O)C(C)(O)C(F)(F)F)CN(C1=NS(=O)(=O)c2cc(F)ccc21)c1ccccc1 (configuration not stated) What is its recorded solubility?
52

---

Target: Potassium voltage-gated channel subfamily A member 5 (Homo sapiens)
Sequence (P22460 whole entry): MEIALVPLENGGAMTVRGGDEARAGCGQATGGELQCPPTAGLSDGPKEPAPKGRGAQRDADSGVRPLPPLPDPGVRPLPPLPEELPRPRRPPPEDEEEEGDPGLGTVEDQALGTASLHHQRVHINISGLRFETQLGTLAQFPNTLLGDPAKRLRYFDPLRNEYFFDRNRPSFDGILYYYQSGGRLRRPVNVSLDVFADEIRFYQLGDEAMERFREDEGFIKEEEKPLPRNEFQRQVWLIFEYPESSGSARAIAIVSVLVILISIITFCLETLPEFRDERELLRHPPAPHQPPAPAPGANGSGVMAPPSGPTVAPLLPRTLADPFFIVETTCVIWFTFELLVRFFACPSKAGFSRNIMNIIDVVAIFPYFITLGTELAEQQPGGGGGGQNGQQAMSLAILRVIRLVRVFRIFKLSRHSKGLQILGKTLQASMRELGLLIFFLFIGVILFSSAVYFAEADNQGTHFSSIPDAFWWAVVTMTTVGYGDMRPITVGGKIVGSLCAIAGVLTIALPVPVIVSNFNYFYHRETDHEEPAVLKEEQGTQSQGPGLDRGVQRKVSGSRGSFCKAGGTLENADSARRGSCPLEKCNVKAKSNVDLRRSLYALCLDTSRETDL
Assay text: Inhibition of human Kv1.5 ion channel expressed in CHO K1 cells
Assay metric: pIC50
For clarity, pIC50 is expressed as the negative log10 of concentration in mol/L.

Consider the following illustrative entries.
Molecule	Target	pIC50
COc1cnccc1C(=O)NCC(C)(C)CN(C1=NS(=O)(=O)c2cc(F)ccc21)c1ccccc1	Potassium voltage-gated channel subfamily A member 5 (Homo sapiens)	6.43
CC(C)(CNC(=O)C1CCOCC1(C)C)CN(C1=NS(=O)(=O)c2cc(F)ccc21)c1ccccc1 (stereo not given)	Potassium voltage-gated channel subfamily A member 5 (Homo sapiens)	6.02
CC(C)(CNC(=O)C(C)(O)C(F)(F)F)CN(C1=NS(=O)(=O)c2cc(F)ccc21)c1ccccc1 (stereo not given)	Potassium voltage-gated channel subfamily A member 5 (Homo sapiens)	6.32

Param item = `CC(C)(CNC(=O)c1cc[nH]c1)CN(C1=NS(=O)(=O)c2cc(F)ccc21)c1ccccc1` ; retrieve measured pIC50.
5.88

---

Recorded half-life by entry
Assay text: Half life in rat liver microsome
Format: ADME
Study conditions: liver microsomes

Previously resolved entries follow.
Compound structure	half-life
CC(C)(CNC(=O)C1CCOCC1)CN(C1=NS(=O)(=O)c2cc(F)ccc21)c1ccccc1	26 min
O=C(NCCCN(C1=NS(=O)(=O)c2ccccc21)c1ccccc1)c1ccc(F)cc1	< 15 min
CC(C)(CNC(=O)C1CCOCC1)CN(C1=NS(=O)(=O)c2ccccc21)c1ccccc1	32 min

# input compound: `CC(C)(CNC(=O)c1ccc(F)cc1)CN(C1=NS(=O)(=O)c2ccccc21)c1ccccc1` ; wanted: its half-life
< 15 min

Also check `CC(C)(CNC(=O)c1cccc(C(F)(F)F)c1)CN(C1=NS(=O)(=O)c2cc(F)ccc21)c1ccccc1`
39 min

---

Target: Potassium voltage-gated channel subfamily A member 3 (Homo sapiens, UniProt P22001)
Sequence (P22001 whole entry): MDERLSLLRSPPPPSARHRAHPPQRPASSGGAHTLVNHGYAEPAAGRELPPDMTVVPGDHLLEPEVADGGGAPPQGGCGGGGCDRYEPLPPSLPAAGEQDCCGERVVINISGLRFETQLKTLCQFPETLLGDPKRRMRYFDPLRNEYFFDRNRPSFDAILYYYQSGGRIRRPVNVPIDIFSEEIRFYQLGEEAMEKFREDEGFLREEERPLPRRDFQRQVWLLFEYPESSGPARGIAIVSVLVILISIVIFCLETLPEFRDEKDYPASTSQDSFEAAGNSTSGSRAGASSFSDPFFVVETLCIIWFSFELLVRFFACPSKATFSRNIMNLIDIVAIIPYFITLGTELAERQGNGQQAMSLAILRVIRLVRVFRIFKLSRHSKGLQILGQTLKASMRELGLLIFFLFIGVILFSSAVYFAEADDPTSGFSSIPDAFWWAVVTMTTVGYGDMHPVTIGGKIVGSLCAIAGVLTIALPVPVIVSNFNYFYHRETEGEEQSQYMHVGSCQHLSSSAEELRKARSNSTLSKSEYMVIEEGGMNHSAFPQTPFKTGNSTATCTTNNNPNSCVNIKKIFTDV
Assay text: Inhibition of human Kv1.3 ion channel expressed in CGE22 cells
Label 1.0 when IC50 is strictly below 400 nM; otherwise label 0.0.

Worked examples, 6 compounds total:
Compound	Assigned class
CC(C)(CNC(=O)C1CC1(F)F)CN(C1=NS(=O)(=O)c2cc(F)ccc21)c1ccccc1 (centres undefined)	1.0
CC(C)(CNC(=O)C1CCOCC1)CN(C1=NS(=O)(=O)c2cc(F)ccc21)c1ccccc1	0.0
CC(C)(CNC(=O)C1(C)CC1)CN(C1=NS(=O)(=O)c2cc(F)ccc21)c1ccccc1	1.0
CC(C)(CNC(=O)C1(O)CCCCC1)CN(C1=NS(=O)(=O)c2cc(F)ccc21)c1ccccc1	1.0
CC(C)(CNC(=O)C1(C(F)(F)F)CCC1)CN(C1=NS(=O)(=O)c2cc(F)ccc21)c1ccccc1	1.0
CC(C)(CNC(=O)C1CCCNC1)CN(C1=NS(=O)(=O)c2cc(F)ccc21)c1ccccc1 (centres undefined)	0.0

Dear colleague, could you confirm whether IC50 of `CC(C)(CNC(=O)N1CCOCC1)CN(C1=NS(=O)(=O)c2ccccc21)c1ccccc1` falls below 400 nM? Thanks.
0.0

Another compound: `CC(C)(CNC(=O)C1(C(=O)O)CC1)CN(C1=NS(=O)(=O)c2cc(F)ccc21)c1ccccc1`
0.0

And for `CC(C)(CNC(=O)C1(N)CC1)CN(C1=NS(=O)(=O)c2cc(F)ccc21)c1ccccc1` ?
0.0

---

Assay text: Cmax in rat at 10 mg/kg, po
Assay type: ADME, organism-based
Set-up: dose 10 mg/kg, route oral
Study conditions: in vivo
Assay metric: Cmax (ng/mL)
Only the number, expressed in ng/mL, is required.

Compound	Value unit	Result
CC(C)(CNC(=O)C(C)(O)C(F)(F)F)CN(C1=NS(=O)(=O)c2cc(F)ccc21)c1ccccc1 (configuration not stated)	ng/mL	2100

# next compound below
# get_value(readout='Cmax', item= `CC(C)(CNC(=O)C1(C#N)CC1)CN(C1=NS(=O)(=O)c2cc(F)ccc21)c1ccccc1` )
900

---

Below is a list of entries, each paired with its recorded pIC50 value.
Target: Potassium voltage-gated channel subfamily A member 3 (Homo sapiens)
Assay text: Inhibition of human Kv1.3 ion channel expressed in CGE22 cells
Type: cell-based
Lab note — pIC50 values are minus log10 of concentrations in M.

Compound	pIC50
CC(C)(CNC(=O)C1CCOCC1(C)C)CN(C1=NS(=O)(=O)c2cc(F)ccc21)c1ccccc1 (centres undefined)	6.08
CC(C)(CNC(=O)c1cccc(C(F)(F)F)c1)CN(C1=NS(=O)(=O)c2cc(F)ccc21)c1ccccc1	6.15
CC(C)(CNC(=O)c1cocn1)CN(C1=NS(=O)(=O)c2cc(F)ccc21)c1ccccc1	6.12
CC(C)(CNC(=O)C1COCCN1)CN(C1=NS(=O)(=O)c2cc(F)ccc21)c1ccccc1 (centres undefined)	5.90
CC(C)(CNC(=O)C1CCCO1)CN(C1=NS(=O)(=O)c2cc(F)ccc21)c1ccccc1 (centres undefined)	6.44
CC(C)(CNC(=O)C1(N)CCCC1)CN(C1=NS(=O)(=O)c2cc(F)ccc21)c1ccccc1	5.82

Look up pIC50: `CC(C)(CNC(=O)c1cscn1)CN(C1=NS(=O)(=O)c2cc(F)ccc21)c1ccccc1`
6.27

Same question, `CC(C)(CNC(=O)C1(C#N)CC1)CN(C1=NS(=O)(=O)c2cc(F)ccc21)c1ccccc1` this time
6.46

Repeat for the following compound: `Cn1ccnc1C(=O)NCC(C)(C)CN(C1=NS(=O)(=O)c2cc(F)ccc21)c1ccccc1`
6.26

---

The entries below are paired with their reported pIC50.
Target: Potassium voltage-gated channel subfamily A member 3 (Homo sapiens, UniProt P22001)
Assay text: Inhibition of human Kv1.3 ion channel expressed in CGE22 cells
Lab note: report pIC50 as minus log10 of the concentration in molar units, number only.

Solved entries (count: 4):
Compound	pIC50
CC(C)(CNC(=O)c1ccoc1)CN(C1=NS(=O)(=O)c2cc(F)ccc21)c1ccccc1	6.82
CC(C)(CNC(=O)C1(C#N)CCOCC1)CN(C1=NS(=O)(=O)c2cc(F)ccc21)c1ccccc1	6.48
CNC(=O)NCC(C)(C)CN(C1=NS(=O)(=O)c2cc(F)ccc21)c1ccccc1	5.51
CN1CCCCC1C(=O)NCC(C)(C)CN(C1=NS(=O)(=O)c2cc(F)ccc21)c1ccccc1 (stereo not drawn)	5.47

Next item in the queue.
// pIC50 lookup, key: `CC(C)(CNC(=O)c1ncccc1O)CN(C1=NS(=O)(=O)c2cc(F)ccc21)c1ccccc1`
6.49
